Test: Plasma pharmacokinetics by LC-MS/MS
Assay type: in vivo, human
Conditions: human, plasma, oral; from previous clearance (43 mL/min/m^2) vs current Cl/F (142 L/h); read-out: THU bioavailability in the current study
measured parameter: bioavailability

Lookup: Endpoint output: bioavailability of O=C1NC(O)CCN1[C@@H]1O[C@H](CO)[C@@H](O)[C@H]1O (stereo partly shown) [THU, tetrahydrouridine] . Value?
Found: ~3%

----------
Assay: Plasma pharmacokinetics by LC-MS/MS
Format: in vivo, human
Details: human, plasma, oral, Total, all dose levels (n=55); geom. mean (geom. SD); read-out: THU Tmax
measured parameter: Tmax

Lookup: Fill in: Tmax of O=C1NC(O)CCN1[C@@H]1O[C@H](CO)[C@@H](O)[C@H]1O (stereo partly shown) [THU, tetrahydrouridine] is ___
Found: ~3 h
